Experiment: folding stability dG unfold from trypsin proteolysis; higher = more stable
Below, each entry is listed with its recorded folding stability dG unfold.

sequence.record: SAGSIEIYIIYPPEDPDQPPTEEEIRSIARSLARQLGLPPKDFPIDVEWRRIDPEDGIYVYEITIEFPSAGG [r19_244_TrROS]
folding stability dG unfold: 2.74 kcal/mol
//
sequence.record: SAGGMEKVKVRVFFIDEETGEPREVEVEATLEELRELIEKIPDKGRVLVKLELPDEERIVTLEELKERSAGG [r13_254_TrMRF]
folding stability dG unfold: 1.79 kcal/mol
//
sequence.record: SAGGSAGGSKKVKEVTITVKNKDGKTVKITKIYKKKDGSKYVLIKDKKTKKTYKISLEDLKKLSAGGSAGGS [r12_488_TrROS_Hall]
folding stability dG unfold: 1.11 kcal/mol
//
sequence.record: SMKALVLELPEEKVVVVFETDELKVVPIPVKDKEEAKEKIEELVKELEEETGKKPEVVVVEVDEDEELPVSA [r9_786_TrMRF]
folding stability dG unfold: -0.0691 kcal/mol
//
sequence.record: SMVTVDEKEDPNSDNKIYTVSLPENGEDVITITKAPDGTTTVTLHYPDGSTTTKTFPGNTPVTEAIKLLLSA [r9_346_JUSTAS]
folding stability dG unfold: 2.23 kcal/mol
//
sequence.record: SAGGSAGGSAGGSAPYPNTVVPTPLLSSVVTETTVEFFPDGTVVPVSTTTTVVLVYRLLSAGGSAGGSAGGS [r4_288_JUSTAS]
folding stability dG unfold: 3.54 kcal/mol
//
sequence.record: SAGGSAEEKAKAIKEELEKKGEVKKVTVTIEPTPENSTKVTVEIEKEPKPKPKEYKYTELPNGKKVILSAGG [r13_957_JUSTAS]
folding stability dG unfold: -0.416 kcal/mol
//
sequence.record: SAGGSAGGSAGPNAVYLGELEVTTRNPDGDRPLRVRVELYLVPTPEGLRLLARVLEVEELSAGGSAGGSAGG [r11_113_TrMRF]
folding stability dG unfold: 2.81 kcal/mol
//
sequence.record: SAARKIAKKLKEAFPNFPIKDIEITEYEPNPNGRPYMNISIQFPNGGKMEIQFDDPEHPEIREAIREIMSAG [r14_143_TrROS]
folding stability dG unfold: 1.59 kcal/mol
//
sequence.record: SAGMPLPAEELAERLAKEIEESTDYKVSIEEIKPEGEYVIIKVRVELPEKYKDKGYEEEEFVAIFPGDLSAG [r5_970_TrMRF]
folding stability dG unfold: 0.703 kcal/mol
//
sequence.record: SAGGSAGGSAGGLEVSIPGWTVTKTEPLPDDSVLSTATKKNGPKFLISISPDEVTISPESAGGSAGGSAGGS [r10_312_JUSTAS]
folding stability dG unfold: -0.394 kcal/mol
//
sequence.record: SEKPPKVKIVSVEYNPETGTVTITVEVEPGQKVRIFVRNSDGSVQEIDLESKTITINLPPGAEIVRIEVLSA [r9_113_TrROS_Hall]
folding stability dG unfold: 3.9 kcal/mol
//
sequence.record: SAGGSRQVIEWEFKDPKNGKPFEISIEYDEENGVPMVEIRDRNGEPNAVVPVPPDNADEALEKFGISAGGSA [r2_115_TrROS]
folding stability dG unfold: -0.903 kcal/mol
//
sequence.record: SAGGSAGVLEAVVFNPETGTFSVIPAAVLEKAFAANPADTELTFTLKDKPVKVFVFPGPGLAVVTGSAGGSA [r15_350_TrMRF]
folding stability dG unfold: 1.14 kcal/mol
//
sequence.record: SAGGSAGGSAGGEPEVKVELRVELDEDGRLRVTLKVEFEDGTVERELELEAPVVFFPPEESAGGSAGGSAGG [r7_992_TrROS_Hall]
folding stability dG unfold: 2.73 kcal/mol
//
sequence.record: SAGGSAGGSGMTLEEIAERLKEEYNAPEVKVTRDPSKPVYTVTVTLADGSTKTYTIYVPEELGSAGGSAGGS [r12_114_JUSTAS]
folding stability dG unfold: 2.63 kcal/mol
//
sequence.record: SAGGSAGGMVIPFILPGSEFEEEEAIERLLELIETARELNPDTPIIANPLILEVPPPPTETELGSAGGSAGG [r6_728_TrMRF]
folding stability dG unfold: 1.36 kcal/mol
//
sequence.record: SAGGSAGMMATKPVEVEVEIPPDDPEAAKERVEAEIKAAFPGPVEVETTSYDPEKGLLKVKVVIKKSAGGSA [r15_1024_JUSTAS]
folding stability dG unfold: -0.497 kcal/mol
//
sequence.record: SAGGPNVPIRIRVTIERQDPDGEPKDFEFPIEYPMPPDDPEQAKEQIEELAESIAEKHGYKVEIEIEPSAGG [r13_853_TrROS]
folding stability dG unfold: -0.664 kcal/mol
//
sequence.record: SDIEIERDPNMIRIEHTYPFDNYRVKISLYVMVGPDGQFMLMIPIEIELPPPPPTPEKDPNGKEKWKPDASA [r9_456_TrROS]
folding stability dG unfold: 2.67 kcal/mol
//
sequence.record: SAGGSAGGSMPTLRVKIEVTNPDGEKLELTITVPRDMTLEELKALAEELAKAGYEVRIVEVEPSAGGSAGGS [r12_804_TrROS_Hall]
folding stability dG unfold: 3.61 kcal/mol
//
sequence.record: SAGGSASPVLTTVTFPGSPEELEAYAAEVRAAGTLLSVSFSPSPDPSYYTITLQVRAPDGTYFTAESAGGSA [r15_177_JUSTAS]
folding stability dG unfold: 1.14 kcal/mol
//
sequence.record: SAGGSAGGSMEVDIEVETLETEVSFLPGDLIKVKKLVKITLPNGEVLEEETEEIIPKSEIGKLSAGGSAGGS [r12_1028_JUSTAS]
folding stability dG unfold: 0.808 kcal/mol
//
sequence.record: SAGGSAGGSMSKPVKITTTRDPNSNVITIQVESEEDVIEFAKKKGINIKIEPTSENTYKLTLESAGGSAGGS [r12_810_JUSTAS]
folding stability dG unfold: 0.0305 kcal/mol
//
sequence.record: SAGGSAGGSAGGMKVIPFESLEEAREYIKANPDENVLLEFPDALLELTKPDDIKKIEKKPSAGGSAGGSAGG [r7_532_JUSTAS]
folding stability dG unfold: -0.0919 kcal/mol
//
sequence.record: SAGGSDKEEKEKEIDIRIVQVPWDDARELAEESDDPVIFMLPDGHIHIFKGDGKVEPFPIPDPEEFSAGGSA [r2_34_TrROS]
folding stability dG unfold: -0.288 kcal/mol
//
sequence.record: SAGGMRLVFVTETPEEAEEIARELAELFPDFELEAEVREEEVLVEVPETGEVKRRPVYVLVIELRPKSAGGS [r16_828_TrMRF]
folding stability dG unfold: 4.29 kcal/mol

====

Experiment: folding stability dG unfold from chymotrypsin proteolysis; higher = more stable
Below is a list of entries, each paired with its recorded folding stability dG unfold value.

sequence.record: SKVKVEVVEVKYNKETKKFTVKLKVYNEDGELIEEIELEFPESEEEVLKKAEELAKELAEKYGLKIEIKPSA [r9_31_TrROS_Hall]
folding stability dG unfold, kcal/mol: 3.89
--
sequence.record: SAGGSMTIVVETPEEVEKAIKALEDELKKKGIKKGDKIKKIKVEKNENGKLTVTIEVDGKKIKIEVSAGGSA [r2_120_TrROS_Hall]
folding stability dG unfold, kcal/mol: 2.02
--
sequence.record: ADPDVKVEVEFEVLPDGRLRVTAVDPDTGVVVEVEAPVDGAGPVTVRVRVRVFDPETGEVSTFEAEFTLPLS [r1_45_TrMRF]
folding stability dG unfold, kcal/mol: 4.33
--
sequence.record: SAGGSAGGSAGGPMRLVRIPLDDGKIKVVPIPPGEAIPFENDNGEIYFMVTDDKIEIMPSAGGSAGGSAGGS [r10_817_TrROS]
folding stability dG unfold, kcal/mol: 0.181
--
sequence.record: SAGGSAGGSAGMTITVYPSDGTVLTRDMSLSEIPELLKKHPELVLESIEEGEGLAKFKVKSAGGSAGGSAGG [r17_22_JUSTAS]
folding stability dG unfold, kcal/mol: -1.05
--
sequence.record: SAGGSAGGSAGGALLVTPTPDGYIARVKDPNSDSWTVVPLSPEELEELAAAGVPTVEVLPSAGGSAGGSAGG [r7_266_JUSTAS]
folding stability dG unfold, kcal/mol: 1.46
--
sequence.record: SAGGSAGGSGNATVMLMFPIEISITVMEWDNGKPKMKTQEIEIWVMIMIPVPPPPDPGDPEWNSAGGSAGGS [r12_713_TrROS]
folding stability dG unfold, kcal/mol: 4.09
